Biological target: human SGLT2 (Homo sapiens, UniProt P31639)
Construct: expressed in transfected cells
Sequence (P31639 1-672): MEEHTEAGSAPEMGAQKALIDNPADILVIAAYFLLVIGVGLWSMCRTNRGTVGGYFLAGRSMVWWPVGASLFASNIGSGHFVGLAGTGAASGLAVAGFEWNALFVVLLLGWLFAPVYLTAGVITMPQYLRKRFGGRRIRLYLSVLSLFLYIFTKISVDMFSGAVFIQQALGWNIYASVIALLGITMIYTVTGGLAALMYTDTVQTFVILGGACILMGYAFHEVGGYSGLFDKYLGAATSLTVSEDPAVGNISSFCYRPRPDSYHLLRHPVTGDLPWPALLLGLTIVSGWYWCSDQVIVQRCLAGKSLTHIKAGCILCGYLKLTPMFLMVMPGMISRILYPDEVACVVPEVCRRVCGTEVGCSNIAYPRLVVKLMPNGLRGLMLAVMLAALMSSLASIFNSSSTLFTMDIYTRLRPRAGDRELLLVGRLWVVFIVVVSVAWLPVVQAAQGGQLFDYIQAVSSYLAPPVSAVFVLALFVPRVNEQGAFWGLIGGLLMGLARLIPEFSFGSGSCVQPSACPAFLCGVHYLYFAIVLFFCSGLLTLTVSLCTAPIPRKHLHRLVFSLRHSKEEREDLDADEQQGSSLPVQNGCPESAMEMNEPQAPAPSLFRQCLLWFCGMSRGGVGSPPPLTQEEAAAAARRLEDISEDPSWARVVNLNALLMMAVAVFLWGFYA
Experiment: Sodium-dependent 14C-methyl-α-D-glucopyranoside uptake in CHO-K1 cells stably expressing human SGLT2
Assay type: cell-based
Details: compound at 0.1 μM
// map inhibition at 0.1 µM to label using low range (below 60%), mid range (60% to below 70%), high range (70% or more)

1) OC[C@@H]1C[C@H](O)[C@@H](O)[C@H](c2cc(Cc3cc4ccccc4s3)c(C(F)(F)F)cc2O)O1 | high range
2) Cc1cc(Br)c([C@@H]2O[C@H](CO)C[C@H](O)[C@H]2O)cc1Cc1cc2ccccc2s1 | low range
3) Cc1cc(-c2ccc[nH]2)c([C@@H]2O[C@H](CO)C[C@H](O)[C@H]2O)cc1Cc1cc2ccccc2s1 | low range

Exercise: Input COc1c(Cc2cc3ccccc3s2)cc([C@@H]2O[C@H](CO)C[C@H](O)[C@H]2O)c(O)c1F ; output its category
Key: high range

Exercise: Input C=CCOc1c([C@@H]2O[C@H](CO)C[C@H](O)[C@H]2O)cc(Cc2cc3ccccc3s2)c(C)c1C ; output its category
Key: low range

Exercise: Input Cc1c(Cc2cc3ccccc3s2)cc([C@@H]2O[C@H](CO)C[C@H](O)[C@H]2O)c(O)c1C ; output its category
Key: mid range

Exercise: Input Cc1cc(O)c([C@@H]2O[C@H](CO)C[C@H](O)[C@H]2O)cc1Cc1ccc(-c2ccc(F)cc2)s1 ; output its category
Key: low range

* * *

biological target: human SGLT1 (Homo sapiens); construct: expressed in transfected cells; assay: Sodium-dependent 14C-methyl-α-D-glucopyranoside uptake in CHO-K1 cells stably expressing human SGLT1; format: cell-based; settings: compound at 0.1 μM
Sequence (P13866 whole entry): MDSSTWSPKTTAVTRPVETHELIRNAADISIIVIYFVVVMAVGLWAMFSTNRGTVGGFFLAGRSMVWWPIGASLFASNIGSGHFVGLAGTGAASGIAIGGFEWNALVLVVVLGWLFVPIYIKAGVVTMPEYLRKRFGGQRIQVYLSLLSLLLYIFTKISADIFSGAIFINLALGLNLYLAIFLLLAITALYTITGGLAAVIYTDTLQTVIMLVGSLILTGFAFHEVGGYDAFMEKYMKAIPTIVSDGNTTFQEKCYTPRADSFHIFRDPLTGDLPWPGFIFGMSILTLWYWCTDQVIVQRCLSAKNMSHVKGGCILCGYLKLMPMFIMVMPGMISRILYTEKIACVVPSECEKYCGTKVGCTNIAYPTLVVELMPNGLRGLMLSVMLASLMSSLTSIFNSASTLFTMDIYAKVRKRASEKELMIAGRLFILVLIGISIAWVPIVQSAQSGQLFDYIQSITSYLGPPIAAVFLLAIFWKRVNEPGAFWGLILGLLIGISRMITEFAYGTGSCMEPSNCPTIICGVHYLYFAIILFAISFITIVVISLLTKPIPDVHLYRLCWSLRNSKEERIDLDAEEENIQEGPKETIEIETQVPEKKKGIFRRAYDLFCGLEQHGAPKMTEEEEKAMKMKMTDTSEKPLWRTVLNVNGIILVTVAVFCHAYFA
Hi, to clarify the labels: Y covers inhibition at 0.1 µM from 30% upward, N covers anything below 30%.

# example entries with known answers
1) Cc1cc(O)c([C@@H]2O[C@H](CO)C[C@H](O)[C@H]2O)cc1Cc1cc2cc(Cl)ccc2s1 [Cpd 20] | N
2) C=Cc1cc(O)c([C@@H]2O[C@H](CO)C[C@H](O)[C@H]2O)cc1Cc1cc2ccccc2s1 [Cpd 17] | Y

Exercise: Item Cc1cc(Br)c([C@@H]2O[C@H](CO)C[C@H](O)[C@H]2O)cc1Cc1ccc(-c2ccc(F)cc2)s1 [Cpd 30] with inhibition at 0.1 µM of 30% or above?
Key: Y

Exercise: Item Cc1cc(O)c([C@@H]2O[C@H](CO)C[C@H](O)[C@H]2O)cc1Cc1nc2ccccc2s1 [Cpd 29] with inhibition at 0.1 µM of 30% or above?
Key: N

* * *

target: human SGLT2 (Homo sapiens, UniProt P31639); construct: expressed in transfected cells; experiment: Sodium-dependent 14C-methyl-α-D-glucopyranoside uptake in CHO-K1 cells stably expressing human SGLT2; format: cell-based; conditions: compound at 0.3 μM
The reader will find reported inhibition at 0.3 µM values listed item by item below.
Please make sure the unit comes right after the number.

1) O=C(c1cc2ccccc2s1)c1cc([C@@H]2O[C@H](CO)C[C@H](O)[C@H]2O)c(O)cc1O [Cpd 18] | 13%
2) COc1cc(O)c([C@@H]2O[C@H](CO)C[C@H](O)[C@H]2O)cc1C(C)(C)c1cc2ccccc2s1 [Cpd 14] | 54%
3) Cc1cc(O)c([C@@H]2O[C@H](CO)C[C@H](O)[C@H]2O)cc1C(C)(C)c1cc2ccccc2s1 [Cpd 15] | 25%

Field: next molecule
Documented inhibition at 0.3 µM of N#Cc1cc(O)c([C@@H]2O[C@H](CO)C[C@H](O)[C@H]2O)cc1Cc1cc2ccccc2s1 [Cpd 13] : 73%

* * *

molecular target: human SGLT2 (Homo sapiens); construct: expressed in transfected cells; experiment: Sodium-dependent 14C-methyl-α-D-glucopyranoside uptake in CHO-K1 cells stably expressing human SGLT2; assay type: cell-based; details: compound at 3 μM
property-measured: inhibition at 3 µM

Below are worked cases with known answers.
1) Cc1cc(O)c([C@@H]2O[C@H](CO)C[C@H](O)[C@H]2O)cc1C(=O)c1cc2ccccc2s1 | 0%
2) C=C(c1cc2ccccc2s1)c1cc([C@@H]2O[C@H](CO)C[C@H](O)[C@H]2O)c(O)cc1OC | 6%
3) COc1cc(O)c([C@@H]2O[C@H](CO)C[C@H](O)[C@H]2O)cc1C(=O)c1cc2ccccc2s1 | 0%

Documented inhibition at 3 µM of COc1cc(O)c([C@@H]2O[C@H](CO)C[C@H](O)[C@H]2O)cc1C1(c2cc3ccccc3s2)CC1 : 57%

Documented inhibition at 3 µM of C=C(c1cc2ccccc2s1)c1cc([C@@H]2O[C@H](CO)C[C@H](O)[C@H]2O)c(O)cc1C : 25%

* * *

The reader will find reported pIC50 values listed item by item below.
Molecular target: human SGLT2 (Homo sapiens, UniProt P31639)
Construct: expressed in transfected cells
Assay: Sodium-dependent 14C-methyl-α-D-glucopyranoside uptake in CHO-K1 cells stably expressing human SGLT2
Type: cell-based
Settings: 14C-methyl-α-D-glucopyranoside uptake
From the text: SGLT1 and SGLT2 were cloned in form of cDNA from human small intestine (Genbank M24847), and from human kidney (Genbank M95549), respectively. Subsequently, each full cDNA was subcloned into pcDNA with each construct's integrity verified through follow-on sequencing. […] Sodium-dependent ^14C-methyl-α-D-glucopyranoside uptake was quantified by measuring radioactivity. Plates were counted in a TopCount (Packard, Meriden, Conn.). […]
Expect pIC50 as a plain number equal to -log10 of the molar concentration.

1. Cc1cc(O)c([C@@H]2O[C@H](CO)C[C@H](O)[C@H]2O)cc1Cc1cc2cc(F)ccc2s1 [Cpd 19] | 7.39
2. Cc1cc(O)c([C@@H]2O[C@H](CO)C[C@H](O)[C@H]2O)cc1Cc1cc2ccccc2s1 [Cpd 1] | 7.80

Reported human SGLT2 (Homo sapiens, UniProt P31639) pIC50 for item CCc1ccc(Cc2cc([C@@H]3O[C@H](CO)C[C@H](O)[C@H]3O)c(O)cc2C)s1 [Cpd 32] was 8.40

Reported human SGLT2 (Homo sapiens, UniProt P31639) pIC50 for item CCc1cc(O)c([C@@H]2O[C@H](CO)C[C@H](O)[C@H]2O)cc1Cc1cc2ccccc2s1 [Cpd 11] was 7.21

Reported human SGLT2 (Homo sapiens, UniProt P31639) pIC50 for item OC[C@@H]1C[C@H](O)[C@@H](O)[C@H](c2cc(Cc3cc4ccccc4s3)c(F)cc2O)O1 [Cpd 4] was 6.89

Reported human SGLT2 (Homo sapiens, UniProt P31639) pIC50 for item COc1cc(O)c([C@@H]2O[C@H](CO)C[C@H](O)[C@H]2O)cc1Cc1cc2ccccc2s1 [Cpd 2] was 6.94

Reported human SGLT2 (Homo sapiens, UniProt P31639) pIC50 for item OC[C@@H]1C[C@H](O)[C@@H](O)[C@H](c2cc(Cc3cc4ccccc4s3)c(C3CC3)cc2O)O1 [Cpd 12] was 6.17

Reported human SGLT2 (Homo sapiens, UniProt P31639) pIC50 for item OC[C@@H]1C[C@H](O)[C@@H](O)[C@H](c2cc(Cc3cc4ccccc4s3)c(Cl)cc2O)O1 [Cpd 3] was 7.66

Reported human SGLT2 (Homo sapiens, UniProt P31639) pIC50 for item Cc1cc(-c2cc[nH]n2)c([C@@H]2O[C@H](CO)C[C@H](O)[C@H]2O)cc1Cc1cc2ccccc2s1 [Cpd 27] was 8.00

Reported human SGLT2 (Homo sapiens, UniProt P31639) pIC50 for item Cc1cc(O)c([C@@H]2O[C@H](CO)C[C@H](O)[C@H]2O)cc1C1(c2cc3ccccc3s2)CC1 [Cpd 10] was 6.65
